Test: clinical
Conditions: human, in vivo, 4 mg
METRIC: Cmax

[[record]]
molecular_string = "C=CCN1CC[C@]23c4c5ccc(O)c4O[C@H]2C(=O)CC[C@@]3(O)[C@H]1C5"
observed_measurement = "10.1 ng/mL"


---

Assay: clinical
Settings: human, in vivo, iv, 0.4 mg
METRIC: half-life (min)

[[record]]
compound = "C=CCN1CC[C@]23c4c5ccc(O)c4O[C@H]2C(=O)CC[C@@]3(O)[C@H]1C5 [naloxone]"
metric = "half-life"
observed_measurement = 3.4

